# Lookup of reported GI50 keyed by entry
system: 786-0; test: Compound was tested for antitumor activity against 786-0 renal cancer cell line(molar concentration that inhibits 50% net cell growth).; type: functional; conditions: Homo sapiens
quantity.measured: GI50 (nM)

{"substance.smiles": "SC1=Nc2ccccc2-c2nc(-c3ccccc3)cc(-c3ccc(Br)cc3)c2C1", "assayed.target": "786-0", "observed.measurement": 631}
{"substance.smiles": "O=C1Cc2c(-c3ccccc3)cc(-c3ccccc3)nc2-c2ccccc2N1", "assayed.target": "786-0", "observed.measurement": 4170}
{"substance.smiles": "O=C1Cc2c(-c3ccc(Br)cc3)cc(-c3ccccc3)nc2-c2ccccc2N1", "assayed.target": "786-0", "observed.measurement": 1620}
{"substance.smiles": "O=C1Cc2c(-c3ccccc3)cc(-c3cccc(Cl)c3)nc2-c2ccccc2N1", "assayed.target": "786-0", "observed.measurement": 977}
{"substance.smiles": "O=C1Cc2c(-c3ccccc3)cc(-c3ccccc3)nc2-c2cc(Br)ccc2N1", "assayed.target": "786-0", "observed.measurement": 631}
{"substance.smiles": "SC1=Nc2ccccc2-c2nc(-c3cccc(Cl)c3)cc(-c3ccccc3)c2C1", "assayed.target": "786-0", "observed.measurement": 977}
{"substance.smiles": "SC1=Nc2ccc(Br)cc2-c2nc(-c3ccccc3)cc(-c3ccccc3)c2C1", "assayed.target": "786-0", "observed.measurement": 1170}

----------
# Lookup of reported GI50 keyed by entry
tested on: TK-10; test: Compound was tested for antitumor activity against TK-10 renal cancer cell line(molar concentration that inhibits 50% net cell growth); format: functional; settings: Homo sapiens

{"substance.smiles": "SC1=Nc2ccc(Br)cc2-c2nc(-c3ccccc3)cc(-c3ccccc3)c2C1", "assayed.target": "TK-10", "GI50 / nM": 1230}
{"substance.smiles": "SC1=Nc2ccccc2-c2nc(-c3cccc(Cl)c3)cc(-c3ccccc3)c2C1", "assayed.target": "TK-10", "GI50 / nM": 437}
{"substance.smiles": "O=C1Cc2c(-c3ccccc3)cc(-c3ccccc3)nc2-c2ccccc2N1", "assayed.target": "TK-10", "GI50 / nM": 2450}
{"substance.smiles": "O=C1Cc2c(-c3ccccc3)cc(-c3ccccc3)nc2-c2cc(Br)ccc2N1", "assayed.target": "TK-10", "GI50 / nM": 427}
{"substance.smiles": "O=C1Cc2c(-c3ccc(Br)cc3)cc(-c3ccccc3)nc2-c2ccccc2N1", "assayed.target": "TK-10", "GI50 / nM": 186}
{"substance.smiles": "O=C1Cc2c(-c3ccccc3)cc(-c3cccc(Cl)c3)nc2-c2ccccc2N1", "assayed.target": "TK-10", "GI50 / nM": 1480}
{"substance.smiles": "SC1=Nc2ccccc2-c2nc(-c3ccccc3)cc(-c3ccc(Br)cc3)c2C1", "assayed.target": "TK-10", "GI50 / nM": 1780}

----------
tested on: ACHN; test: Compound was tested for antitumor activity against ACHN renal cancer cell line(molar concentration leading to 50% net cell death).; type: functional; conditions: Homo sapiens
Doc: threshold 20 µM (exclusive). Items with LC50 (50% net cell death) beneath it return condition met; others return condition not met.

{"substance.smiles": "O=C1Cc2c(-c3ccccc3)cc(-c3cccc(Cl)c3)nc2-c2ccccc2N1", "category.label": "condition not met"}
{"substance.smiles": "SC1=Nc2ccc(Br)cc2-c2nc(-c3ccccc3)cc(-c3ccccc3)c2C1", "category.label": "condition met"}
{"substance.smiles": "O=C1Cc2c(-c3ccccc3)cc(-c3ccccc3)nc2-c2cc(Br)ccc2N1", "category.label": "condition met"}
{"substance.smiles": "SC1=Nc2ccccc2-c2nc(-c3ccccc3)cc(-c3ccc(Br)cc3)c2C1", "category.label": "condition met"}
{"substance.smiles": "O=C1Cc2c(-c3ccccc3)cc(-c3ccccc3)nc2-c2ccccc2N1", "category.label": "condition not met"}
{"substance.smiles": "SC1=Nc2ccccc2-c2nc(-c3cccc(Cl)c3)cc(-c3ccccc3)c2C1", "category.label": "condition met"}
{"substance.smiles": "O=C1Cc2c(-c3ccc(Br)cc3)cc(-c3ccccc3)nc2-c2ccccc2N1", "category.label": "condition not met"}
